# target_entity: UniProt P19643
# Sequence (P19643 whole entry): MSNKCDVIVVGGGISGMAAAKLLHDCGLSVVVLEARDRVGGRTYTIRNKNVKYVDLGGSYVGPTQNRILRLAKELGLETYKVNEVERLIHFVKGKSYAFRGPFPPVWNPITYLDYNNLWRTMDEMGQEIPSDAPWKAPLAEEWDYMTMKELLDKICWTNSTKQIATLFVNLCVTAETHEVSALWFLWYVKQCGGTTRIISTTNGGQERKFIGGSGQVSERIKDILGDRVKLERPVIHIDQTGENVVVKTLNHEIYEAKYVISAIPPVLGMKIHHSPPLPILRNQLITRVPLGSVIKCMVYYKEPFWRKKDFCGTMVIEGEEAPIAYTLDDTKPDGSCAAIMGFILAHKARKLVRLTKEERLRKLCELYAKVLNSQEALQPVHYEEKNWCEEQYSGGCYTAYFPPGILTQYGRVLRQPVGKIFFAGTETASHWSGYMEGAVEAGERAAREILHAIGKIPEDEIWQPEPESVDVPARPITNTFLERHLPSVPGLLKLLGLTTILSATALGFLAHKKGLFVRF
# test_protocol: biochemical
# Assay type: biochemical
# recorded_conditions: in vitro, relative to most effective inhibitor in group
Comparison to most effective MAO-B inhibitor in group vs 1%: at or above is Y, below is N.

*Q* Exam item: decide whether the reported Comparison to most effective MAO-B inhibitor in group for C#CCN(C)[C@@H](C)CCCCC [Example S-2HMP, (S)-N-(2-heptyl)-N-methyl-propargylamine] is at least 1%.
*A* N

*Q* Reported Comparison to most effective MAO-B inhibitor in group at or above 1%? C#CCN[C@@H](C)CC [Example S-2BuPA, (S)-N-(2-butyl)-propargylamine]
*A* N

*Q* Check this compound for Comparison to most effective MAO-B inhibitor in group at or above 1%: C#CCN[C@H](C)CCCC.Cl [Example R-2HxPA]
*A* N

*Q* Is reported Comparison to most effective MAO-B inhibitor in group greater than or equal to 1% here: C#CCN(C)[C@H](C)CCCCC [Example R-2HMP, (R)-N-(2-heptyl)-N-methyl-propargylamine]
*A* Y

*Q* Does the compound C#CCN[C@@H](C)CCCCC [Example S-2HPA, (S)-N-(2-heptyl)-propargylamine] have recorded Comparison to most effective MAO-B inhibitor in group that is 1% or more?
*A* N

*Q* Exam item: decide whether the reported Comparison to most effective MAO-B inhibitor in group for C#CCN(C)[C@H](C)CCCC [Example R-2HxMP, N-(2-hexyl)-N-methyl-propargylamine] is at least 1%.
*A* Y

*Q* // inclusive: Comparison to most effective MAO-B inhibitor in group at least 1%? input: C#CCN(C)[C@@H](C)CCCC [Example S-2HxMP, N-(2-hexyl)-N-methyl-propargylamine]
*A* Y

*Q* Hi team, for C#CCN[C@H](C)CCCCC.Cl [Example R-2HPA] , is the recorded Comparison to most effective MAO-B inhibitor in group at or above 1%?
*A* N

*Q* Is the recorded value of Comparison to most effective MAO-B inhibitor in group equal to or greater than 1% for this compound? C#CCN[C@H](C)CC.Cl [Example R-2BuPA]
*A* Y
